Entries and their selectivity ratio
- Assay details: Therapeutic index, ratio of EC50 for human BJ cells to EC50 for mouse B-ALL cells expressing wild type BCR-ABL
- Format: toxicity
- Details: human BJ cells versus mouse B-ALL cells expressing wild type BCR-ABL; read-out: Ratio EC50
Parameter measured: selectivity ratio

• COc1ccc(O)c(-c2cc(-c3cc(Cl)ccc3O)[nH]n2)c1 = 5
• O=C(Cc1ccccc1)Nc1ccc(-c2nc3cc(NC(=O)Cc4ccccc4)ccc3[nH]2)cc1 = 13
• COc1cc(-c2cc3ccccc3[nH]2)[nH]c1/C=C1\N=C(C)C=C1C = 7
• NC(=O)c1sccc1Nc1[nH]c(Nc2cccc(OC(F)(F)F)c2)nc2nncc1-2 = 5
• Cc1ccc(S(=O)(=O)Cc2nc(-c3ccc(C(=O)NCc4cccnc4)cc3)oc2C)cc1 = 34
